These data points were gathered from ChEMBL document CHEMBL1156077.

- Study Target: P2Y purinoceptor 12 (Homo sapiens)
- Test: Ratio of compound IC50 to thienopyrimidine IC50 for P2Y12 receptor in human platelet rich plasma assessed as inhibition of ADP-induced platelet aggregation by light transmission aggregometry
Parameter Ratio IC50: see the listing below.
Observation Type: Ratio IC50

# Given Smiles, Endpoint Value
measured = [
    ("CCCCCOC(=O)N1CCN(C(=O)[C@H](CCC(=O)O)NC(=O)c2cc(N3CCN(CCOC)CC3)nc(-c3ccccc3)n2)CC1", 0.3),
    ("CCCCCOC(=O)N1CCN(C(=O)[C@H](CCC(=O)O)NC(=O)c2cc(N3CCN(CC(=O)N4CCCC4)CC3)nc(-c3ccccc3)n2)CC1", 0.2),
    ("CCCCCOC(=O)N1CCN(C(=O)[C@H](CCC(=O)O)NC(=O)c2nc(-c3ccccc3)cc(N3CCN(C(C)=O)CC3)n2)CC1", 1.8),
    ("CCCCCOC(=O)N1CCN(C(=O)[C@H](CCC(=O)O)NC(=O)c2cc(N3CCNCC3)nc(-c3ccccc3)n2)CC1", 0.3),
]

---

Parameter Ratio IC50: see the listing below.
- Study Target: P2Y purinoceptor 12 (Homo sapiens, UniProt Q9H244)
- Sequence (Q9H244 whole entry): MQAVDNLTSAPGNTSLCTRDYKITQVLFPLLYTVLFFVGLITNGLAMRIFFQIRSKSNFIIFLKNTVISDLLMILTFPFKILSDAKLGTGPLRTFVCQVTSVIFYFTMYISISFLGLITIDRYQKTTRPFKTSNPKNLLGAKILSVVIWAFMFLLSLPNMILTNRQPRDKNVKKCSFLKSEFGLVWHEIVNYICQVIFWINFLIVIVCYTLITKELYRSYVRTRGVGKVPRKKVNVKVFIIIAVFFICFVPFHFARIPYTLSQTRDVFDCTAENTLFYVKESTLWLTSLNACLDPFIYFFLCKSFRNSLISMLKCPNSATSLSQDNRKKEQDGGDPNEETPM
- Test: Ratio of compound IC50 to AZD-6140 IC50 for P2Y12 receptor in human platelet rich plasma assessed as inhibition of ADP-induced platelet aggregation by light transmission aggregometry

# Molecule, Ratio IC50
rows = [
    ("CCCCCOC(=O)N1CCN(C(=O)[C@H](CCC(=O)O)NC(=O)c2cc(N3CCC(C(N)=O)CC3)nc(-c3ccccc3)n2)CC1", 0.7),
    ("CCCCCOC(=O)N1CCN(C(=O)[C@H](CCC(=O)O)NC(=O)c2cc(N3CCN(C(C)=O)CC3)nc(-c3ccccc3)n2)CC1", 1),
    ("CCCCOC(=O)N1CCN(C(=O)[C@H](CCC(=O)O)NC(=O)c2cc(N3CCC(C(=O)N(CC)CC)CC3)nc(-c3ccccc3)n2)CC1", 0.6),
    ("CCCCOC(=O)N1CCN(C(=O)[C@H](CCC(=O)O)NC(=O)c2cc(N3CCC(N4CCOCC4)CC3)nc(-c3ccccc3)n2)CC1", 1.1),
    ("CCCCCOC(=O)N1CCN(C(=O)[C@H](CCC(=O)O)NC(=O)c2cc(N3CCC(N)CC3)nc(-c3ccccc3)n2)CC1", 0.5),
    ("CCCCOC(=O)N1CCN(C(=O)[C@H](CCC(=O)O)NC(=O)c2cc(N3CCC(C(=O)N(C)C)CC3)nc(-c3ccccc3)n2)CC1", 1.1),
    ("CCCCCOC(=O)N1CCN(C(=O)[C@H](CCC(=O)O)NC(=O)c2cc(N3CCN(CCOC)CC3)nc(-c3ccccc3)n2)CC1", 1.5),
    ("CCCCCOC(=O)N1CCN(C(=O)[C@H](CCC(=O)O)NC(=O)c2nc(-c3ccccc3)cc(N3CCNCC3)n2)CC1", 6),
    ("CCCCCOC(=O)N1CCN(C(=O)[C@H](CCC(=O)O)NC(=O)c2nc(-c3ccccc3)cc(N3CCC(CCN)CC3)n2)CC1", 1.9),
    ("CCCCCOC(=O)N1CCN(C(=O)[C@H](CCC(=O)O)NC(=O)c2cc(N3CCC(N4CCCC4)CC3)nc(-c3ccccc3)n2)CC1", 0.4),
    ("CCCCCOC(=O)N1CCN(C(=O)[C@H](CCC(=O)O)NC(=O)c2cc(OCCCN3CCOCC3)nc(-c3ccccc3)n2)CC1", 8.3),
    ("CCCCCOC(=O)N1CCN(C(=O)[C@H](CCC(=O)O)NC(=O)c2nc(-c3ccccc3)cc(N3CCC(CN)CC3)n2)CC1", 1.2),
    ("CCCCCOC(=O)N1CCN(C(=O)[C@H](CCC(=O)O)NC(=O)c2nc(-c3ccccc3)cc(N3CCN(C)CC3)n2)CC1", 8.1),
    ("CCCCCOC(=O)N1CCN(C(=O)[C@H](CCC(=O)O)NC(=O)c2cc(NCC3CCNC3)nc(-c3ccccc3)n2)CC1 (stereo partly drawn)", 2.3),
    ("CCCCOC(=O)N1CCN(C(=O)[C@H](CCC(=O)O)NC(=O)c2cc(N3CCC(CCOC)CC3)nc(-c3ccccc3)n2)CC1", 2.1),
    ("CCCCCOC(=O)N1CCN(C(=O)[C@H](CCC(=O)O)NC(=O)c2nc(-c3ccccc3)cc(N3CCC(N4CCCC4)CC3)n2)CC1", 2.4),
    ("CCCCOC(=O)N1CCN(C(=O)[C@H](CCC(=O)O)NC(=O)c2cc(OCC3CCN(C)CC3)nc(-c3ccccc3)n2)CC1", 3.7),
    ("CCCCCOC(=O)N1CCN(C(=O)[C@H](CCC(=O)O)NC(=O)c2cc(N3CC(OCC)C3)nc(-c3ccccc3)n2)CC1", 3.4),
    ("CCCCOC(=O)N1CCN(C(=O)[C@H](CCC(=O)O)NC(=O)c2cc(OCCOC)nc(-c3ccccc3)n2)CC1", 3.7),
    ("CCCCCOC(=O)N1CCN(C(=O)[C@H](CCC(=O)O)NC(=O)c2cc(NCCOC)nc(-c3ccccc3)n2)CC1", 2.2),
    ("CCCCCOC(=O)N1CCN(C(=O)[C@H](CCC(=O)O)NC(=O)c2cc(N3CCC(CC(=O)N(CC)CC)CC3)nc(-c3ccccc3)n2)CC1", 3.3),
    ("CCCCCOC(=O)N1CCN(C(=O)[C@H](CCC(=O)O)NC(=O)c2nc(-c3ccccc3)cc(N3CCC(C(=O)N(CC)CC)CC3)n2)CC1", 1.5),
    ("CCCCCOC(=O)N1CCN(C(=O)[C@H](CCC(=O)O)NC(=O)c2cc(OCC3CCN(C)CC3)nc(-c3ccccc3)n2)CC1", 3.7),
    ("CCCCCOC(=O)N1CCN(C(=O)[C@H](CCC(=O)O)NC(=O)c2cc(N3CCC(CNC)CC3)nc(-c3ccccc3)n2)CC1", 0.7),
    ("CCCCCOC(=O)N1CCN(C(=O)[C@H](CCC(=O)O)NC(=O)c2cc(N3CCC(CCN)CC3)nc(-c3ccccc3)n2)CC1", 0.4),
    ("CCCCCOC(=O)N1CCN(C(=O)[C@H](CCC(=O)O)NC(=O)c2cc(N3CCN(CC(=O)N(C)C)CC3)nc(-c3ccccc3)n2)CC1", 0.5),
    ("CCCCCOC(=O)N1CCN(C(=O)[C@H](CCC(=O)O)NC(=O)c2cc(N3CCN(C)CC3)nc(-c3ccccc3)n2)CC1", 1.3),
    ("CCCCCOC(=O)N1CCN(C(=O)[C@H](CCC(=O)O)NC(=O)c2cc(N3CCC(C(=O)N4CCCC4)CC3)nc(-c3ccccc3)n2)CC1", 0.4),
]
